Biological target: IFIT3 Interferon-induced protein with tetratricopeptide (Homo sapiens)
Construct: isoTOP-ABPP experiments performed in cell lysates (in vitro); endogenous in cells; host or cells: MDA-MB-231 soluble lysate
Sequence (O14879 whole entry): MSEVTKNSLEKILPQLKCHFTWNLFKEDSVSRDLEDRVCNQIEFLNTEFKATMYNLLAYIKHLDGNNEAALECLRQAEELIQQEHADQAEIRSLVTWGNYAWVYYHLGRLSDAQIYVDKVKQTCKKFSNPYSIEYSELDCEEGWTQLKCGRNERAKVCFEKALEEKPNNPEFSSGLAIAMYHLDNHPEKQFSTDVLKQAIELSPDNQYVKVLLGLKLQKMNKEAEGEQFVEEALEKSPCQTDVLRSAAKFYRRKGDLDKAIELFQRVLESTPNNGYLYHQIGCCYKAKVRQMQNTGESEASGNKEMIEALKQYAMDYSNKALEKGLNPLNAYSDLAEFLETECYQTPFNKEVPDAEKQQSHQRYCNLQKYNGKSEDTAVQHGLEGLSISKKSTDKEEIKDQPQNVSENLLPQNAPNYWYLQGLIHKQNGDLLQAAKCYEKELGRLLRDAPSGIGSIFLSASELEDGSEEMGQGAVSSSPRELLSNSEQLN
Assay: competitive isoTOP-ABPP
Type: binding
Details: 50 uM_231_sol_in vitro
isoTOP-ABPP ratio, lysine O14879_K148 by entry:
Keep it simple and answer with nothing but the number.

Check out these entries, answers already filled in.
INSERT INTO results (compound, endpoint_value) VALUES
  ('N#Cc1ccc(C(=O)Oc2ccc([N+](=O)[O-])cc2[N+](=O)[O-])cc1 [fragment 44, 2,4-Dinitrophenyl 4-cyanobenzoate]', 2.2),
  ('O=C(ON1C(=O)CCC1=O)c1cc(C(F)(F)F)cc(C(F)(F)F)c1', 2.2),
  ('O=C(Oc1c(F)c(F)cc(F)c1F)c1cc(C(F)(F)F)cc(C(F)(F)F)c1', 0.7);

In the following, a different compound is considered.
Data request: Find the measured isoTOP-ABPP ratio, lysine O14879_K148 of O=C(CCc1ccc2c(c1)OCO2)Oc1ccc([N+](=O)[O-])cc1[N+](=O)[O-] and report it.
Data returned: 2.7
